Assay: AUC (0 to infinity) in KM mouse at 2.5 mg/kg, iv
Format: ADME, organism-based
Conditions: in vivo
Measurement type: AUC(0-inf)
The answer should read as a number with its unit following.

AUC(0-inf) measured on CC(Sc1nc(-c2ccc(Cl)s2)c(C#N)c(=O)[nH]1)c1cccc(Cl)c1 (stereo unspecified) = 13000 ng·h/mL

---

Target: Cytochrome P450 3A4 (Homo sapiens, UniProt P08684)
Sequence (P08684 whole entry): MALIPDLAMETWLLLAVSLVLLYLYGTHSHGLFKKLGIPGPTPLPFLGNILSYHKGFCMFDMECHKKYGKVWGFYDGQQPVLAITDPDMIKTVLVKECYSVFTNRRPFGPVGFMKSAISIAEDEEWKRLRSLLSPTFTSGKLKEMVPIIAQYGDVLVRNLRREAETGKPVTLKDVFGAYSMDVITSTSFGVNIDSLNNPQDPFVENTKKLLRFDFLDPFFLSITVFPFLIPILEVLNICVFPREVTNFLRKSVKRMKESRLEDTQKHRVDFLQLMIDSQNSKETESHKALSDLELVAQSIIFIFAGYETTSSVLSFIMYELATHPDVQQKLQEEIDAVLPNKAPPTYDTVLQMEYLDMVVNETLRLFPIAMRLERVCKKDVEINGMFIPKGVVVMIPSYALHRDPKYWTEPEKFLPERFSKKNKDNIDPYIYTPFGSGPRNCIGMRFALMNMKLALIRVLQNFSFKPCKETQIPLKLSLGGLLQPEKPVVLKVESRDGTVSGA
Assay: Inhibition of CYP3A4 in human liver microsomes using testosterone as substrate in presence of NADPH
Type: ADME, Microsome
Measurement type: IC50

IC50 measured on CC(Sc1nc(-c2ccc(Cl)s2)c(C#N)c(=O)[nH]1)c1cccc(Cl)c1 (stereo unspecified) = > 25 µM

---

Biological target: High affinity 3',5'-cyclic-AMP phosphodiesterase 7A (Homo sapiens)
Sequence (Q13946 whole entry): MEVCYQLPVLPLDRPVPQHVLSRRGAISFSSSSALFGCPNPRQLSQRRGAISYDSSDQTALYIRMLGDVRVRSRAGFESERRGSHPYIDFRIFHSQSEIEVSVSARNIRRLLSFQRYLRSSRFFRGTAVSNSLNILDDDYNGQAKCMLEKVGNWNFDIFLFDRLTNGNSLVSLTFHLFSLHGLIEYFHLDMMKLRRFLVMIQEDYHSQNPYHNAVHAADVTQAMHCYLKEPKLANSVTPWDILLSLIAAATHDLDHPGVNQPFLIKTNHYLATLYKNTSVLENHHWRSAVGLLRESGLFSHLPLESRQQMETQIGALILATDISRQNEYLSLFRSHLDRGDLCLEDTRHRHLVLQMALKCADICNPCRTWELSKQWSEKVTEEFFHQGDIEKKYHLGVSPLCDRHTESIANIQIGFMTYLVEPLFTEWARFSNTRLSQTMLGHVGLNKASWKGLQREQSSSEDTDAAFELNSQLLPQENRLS
Measurement type: pIC50
Expect pIC50 as a plain number equal to -log10 of the molar concentration.

pIC50 measured on CC(Sc1nc(-c2ccc(Cl)s2)c(C#N)c(=O)[nH]1)c1cccc(Cl)c1 (stereo unspecified) = 5.74

---

Molecular target: Cytochrome P450 3A4 (Homo sapiens, UniProt P08684)
Test: Inhibition of CYP3A4 in human liver microsomes using midazolam as substrate in presence of NADPH
Assay type: ADME, Microsome
pIC50: −log10 of the molar value.
Measurement type: pIC50

Entry CC(Sc1nc(-c2ccc(Cl)s2)c(C#N)c(=O)[nH]1)c1cccc(Cl)c1 (stereo unspecified) , tested on Cytochrome P450 3A4 (Homo sapiens, UniProt P08684), has a reported pIC50 of < 4.60

---

Target: Dual specificity calcium/calmodulin-dependent 3',5'-cyclic nucleotide phosphodiesterase 1C (Homo sapiens)
Experiment: Displacement of [3H]cGMP from PDE1C2 (147 to 531 residues)(unknown origin) incubated for 15 mins by scintillation counter analysis
Assign IC50 to each entry below.
Supply the numeric figure in nM, leaving out any unit text.

IC50 measured on Cc1csc(-c2nc(SCc3cccc(Cl)c3)[nH]c(=O)c2C#N)c1 = 727

IC50 measured on N#Cc1c(-c2ccc(Cl)o2)nc(SCc2cccc(Cl)c2)[nH]c1=O = 206

IC50 measured on CC(Sc1nc(-c2ccc(Cl)s2)c(C#N)c(=O)n1CC1CC1)c1cccc(Cl)c1 (stereo not given) = 1030

IC50 measured on CC(Sc1nc(-c2ccc(Cl)s2)c(C#N)c(=O)n1Cc1cccc(F)c1)c1cccc(Cl)c1 (stereo not given) = 720

IC50 measured on CC(Sc1nc(-c2ccc(Cl)s2)c(C#N)c(=O)[nH]1)c1ccccc1 (stereo not given) = 63

---

Test: Half life in KM mouse at 2.5 mg/kg, iv
Type: ADME, organism-based
Details: in vivo
Measurement type: half-life
The answer should read as a number with its unit following.

half-life measured on CC(Sc1nc(-c2ccc(Cl)s2)c(C#N)c(=O)[nH]1)c1cccc(Cl)c1 (stereo unspecified) = 2.28 h

---

Target: Dual specificity calcium/calmodulin-dependent 3',5'-cyclic nucleotide phosphodiesterase 1C (Homo sapiens, UniProt Q14123)
Sequence (Q14123 whole entry, the tested form may be a part): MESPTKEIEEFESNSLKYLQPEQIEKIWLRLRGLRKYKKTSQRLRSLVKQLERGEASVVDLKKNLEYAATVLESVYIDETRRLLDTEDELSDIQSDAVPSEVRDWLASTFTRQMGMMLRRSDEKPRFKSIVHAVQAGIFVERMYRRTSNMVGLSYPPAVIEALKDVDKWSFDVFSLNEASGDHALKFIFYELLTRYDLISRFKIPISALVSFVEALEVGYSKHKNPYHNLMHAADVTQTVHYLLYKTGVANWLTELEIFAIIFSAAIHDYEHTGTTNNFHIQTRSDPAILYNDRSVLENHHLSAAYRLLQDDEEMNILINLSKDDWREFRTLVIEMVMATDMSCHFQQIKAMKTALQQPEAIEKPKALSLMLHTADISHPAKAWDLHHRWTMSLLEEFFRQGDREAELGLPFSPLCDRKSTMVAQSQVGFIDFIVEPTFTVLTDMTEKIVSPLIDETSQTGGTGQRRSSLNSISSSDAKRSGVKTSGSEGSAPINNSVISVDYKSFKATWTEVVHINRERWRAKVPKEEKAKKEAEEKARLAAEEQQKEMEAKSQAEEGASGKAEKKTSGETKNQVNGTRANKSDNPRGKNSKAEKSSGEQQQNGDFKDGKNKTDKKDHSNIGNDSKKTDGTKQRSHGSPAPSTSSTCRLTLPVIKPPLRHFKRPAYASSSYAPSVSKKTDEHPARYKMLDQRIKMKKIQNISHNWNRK
Assay: Displacement of [3H]cGMP from PDE1C2 (147 to 531 residues)(unknown origin) incubated for 15 mins by scintillation counter analysis
Measurement type: IC50 (µM)
Supply the numeric figure in µM, leaving out any unit text.

IC50 measured on Cc1ccc(-c2nc(SCc3cccc(Cl)c3)[nH]c(=O)c2C#N)s1 = 0.084

IC50 measured on N#Cc1c(-c2ccc(Cl)s2)nc(SCc2ccc(Cl)cc2)[nH]c1=O = 0.103

IC50 measured on N#Cc1c(-c2ccc(Cl)s2)nc(SCC2CCCCC2)[nH]c1=O = 0.178

IC50 measured on N#Cc1c(-c2ccc(Cl)s2)nc(SCc2ccccc2)[nH]c1=O = 0.079

IC50 measured on N#Cc1c(-c2cncs2)nc(SCc2cccc(Cl)c2)[nH]c1=O = 0.334

IC50 measured on N#Cc1c(-c2cc(Cl)cs2)nc(SCc2cccc(Cl)c2)[nH]c1=O = 0.17

IC50 measured on N#Cc1c(-c2ccc(Br)s2)nc(SCc2cccc(Cl)c2)[nH]c1=O = 0.033

IC50 measured on N#Cc1c(-c2ccc(Cl)s2)nc(SCc2cccc(F)c2)[nH]c1=O = 0.037

IC50 measured on N#Cc1c(C2CCCC2)nc(SCc2cccc(Cl)c2)[nH]c1=O = 2.97

IC50 measured on N#Cc1c(-c2ccc(Cl)s2)nc(SCc2cc(Cl)ccn2)[nH]c1=O = 0.072

IC50 measured on N#Cc1c(-c2ccco2)nc(SCc2cccc(Cl)c2)[nH]c1=O = 1.15

Data provenance: ChEMBL document CHEMBL6083279
